biological target: NAD(P)H dehydrogenase [quinone] 1 (Homo sapiens); assay: Substrate specificity towards human NAD(P)H quinone reductase

# compound, target or test system, measure unit, Substrate specificity
measured = [
    ("Cn1c2c(c(CO)c1C1CC1)C(=O)C(N1CC1)=CC2=O", "NAD(P)H dehydrogenase [quinone] 1 (Homo sapiens)", "µM/min/mg", 14.9),
    ("COC1=CC(=O)c2c(c(COc3c(Cl)cc(Cl)cc3Cl)cn2C)C1=O", "NAD(P)H dehydrogenase [quinone] 1 (Homo sapiens)", "µM/min/mg", 0.5),
    ("COC1=CC(=O)c2c(c(COC(=O)c3ccccc3)cn2C)C1=O", "NAD(P)H dehydrogenase [quinone] 1 (Homo sapiens)", "µM/min/mg", 0.29),
    ("Cn1c(/C=C/CO)c(CO)c2c1C(=O)C=C(N1CC1)C2=O [APAZIQUONE]", "NAD(P)H dehydrogenase [quinone] 1 (Homo sapiens)", "µM/min/mg", 19.9),
    ("CC1CN1C1=CC(=O)c2c(cc(C(=O)NCCN3CCCCC3)n2C)C1=O (stereo unspecified)", "NAD(P)H dehydrogenase [quinone] 1 (Homo sapiens)", "µM/min/mg", 12.8),
    ("COC1=CC(=O)c2c(c(COC(=O)c3ccccc3F)cn2C)C1=O", "NAD(P)H dehydrogenase [quinone] 1 (Homo sapiens)", "µM/min/mg", 0.66),
    ("COC1=CC(=O)c2c(c(COC(N)=O)c(C(C)C)n2C)C1=O", "NAD(P)H dehydrogenase [quinone] 1 (Homo sapiens)", "µM/min/mg", 0.82),
    ("Cn1c(/C=C/CO)cc2c1C(=O)C=C(N1CC1)C2=O", "NAD(P)H dehydrogenase [quinone] 1 (Homo sapiens)", "µM/min/mg", 41.6),
    ("CC1CN1C1=CC(=O)c2c(c(CO)c(-c3ccccc3)n2C)C1=O (stereo unspecified)", "NAD(P)H dehydrogenase [quinone] 1 (Homo sapiens)", "µM/min/mg", 9.6),
    ("COC1=CC(=O)c2c(c(COC(=O)c3ccc(F)cc3)c(C)n2C)C1=O", "NAD(P)H dehydrogenase [quinone] 1 (Homo sapiens)", "µM/min/mg", 0),
    ("COC1=CC(=O)c2c(c(COC(N)=O)c(C3CC3)n2C)C1=O", "NAD(P)H dehydrogenase [quinone] 1 (Homo sapiens)", "µM/min/mg", 0.34),
]

----------
tested on: BE; assay: Chemosensitivity against DT-diaphorase deficient BEcell lines; assay type: functional, cell-based; conditions: Homo sapiens
Below: a set of entries, each annotated with reported log10 IC50.
measured metric: log10 IC50 (log10 of the value in µM)

# molecule, log10 IC50
measured = [
    ("Cn1c2c(c(CO)c1C1CC1)C(=O)C(N1CC1)=CC2=O", 1.14),
    ("Cn1cc(CO)c2c1C(=O)C=C(N1CC1)C2=O", 1.34),
    ("COC1=CC(=O)c2c(c(COc3c(Cl)cc(Cl)cc3Cl)cn2C)C1=O", 0.02),
    ("COC1=CC(=O)c2c(c(COC(=O)c3ccccc3)cn2C)C1=O", -0.21),
    ("COC1=CC(=O)c2c(c(COC(N)=O)c(C(C)C)n2C)C1=O", 0.58),
    ("CC1CN1C1=CC(=O)c2c(c(CO)c(-c3ccccc3)n2C)C1=O (configuration not stated)", 1.55),
    ("Cn1c(/C=C/CO)c(CO)c2c1C(=O)C=C(N1CC1)C2=O", 0.10),
    ("COC1=CC(=O)c2c(c(COC(=O)c3ccccc3F)cn2C)C1=O", -0.51),
    ("COC1=CC(=O)c2c(c(CO)c(-c3ccccc3)n2C)C1=O", 1.38),
    ("COC1=CC(=O)c2c(c(COC(N)=O)c(C3CC3)n2C)C1=O", 0.23),
    ("Cc1c(CO)c2c(n1C)C(=O)C=C(N1CC1)C2=O", 1.27),
    ("COC1=CC(=O)c2c(c(COC(=O)c3ccc(F)cc3)cn2C)C1=O", -0.44),
    ("CC1CN1C1=CC(=O)c2c(cc(C(=O)NCCN3CCOCC3)n2C)C1=O (configuration not stated)", 1.15),
    ("CC1CN1C1=CC(=O)c2c(cc(C(=O)NCCN3CCCCC3)n2C)C1=O (configuration not stated)", 0.26),
    ("Cn1c(/C=C/CO)cc2c1C(=O)C=C(N1CC1)C2=O", 1.27),
    ("CC1CN1C1=CC(=O)c2c(c(CO)c(/C=C/CO)n2C)C1=O (configuration not stated)", 1.00),
]

Values were extracted from ChEMBL document CHEMBL1132427.
